TARGET_ENTITY: aldosterone receptor (Rattus norvegicus)
Construct: centrifuged at 105,000 g for 30 minutes, and then a supernatant was collected as a renal soluble fraction
Sequence (P22199 whole entry): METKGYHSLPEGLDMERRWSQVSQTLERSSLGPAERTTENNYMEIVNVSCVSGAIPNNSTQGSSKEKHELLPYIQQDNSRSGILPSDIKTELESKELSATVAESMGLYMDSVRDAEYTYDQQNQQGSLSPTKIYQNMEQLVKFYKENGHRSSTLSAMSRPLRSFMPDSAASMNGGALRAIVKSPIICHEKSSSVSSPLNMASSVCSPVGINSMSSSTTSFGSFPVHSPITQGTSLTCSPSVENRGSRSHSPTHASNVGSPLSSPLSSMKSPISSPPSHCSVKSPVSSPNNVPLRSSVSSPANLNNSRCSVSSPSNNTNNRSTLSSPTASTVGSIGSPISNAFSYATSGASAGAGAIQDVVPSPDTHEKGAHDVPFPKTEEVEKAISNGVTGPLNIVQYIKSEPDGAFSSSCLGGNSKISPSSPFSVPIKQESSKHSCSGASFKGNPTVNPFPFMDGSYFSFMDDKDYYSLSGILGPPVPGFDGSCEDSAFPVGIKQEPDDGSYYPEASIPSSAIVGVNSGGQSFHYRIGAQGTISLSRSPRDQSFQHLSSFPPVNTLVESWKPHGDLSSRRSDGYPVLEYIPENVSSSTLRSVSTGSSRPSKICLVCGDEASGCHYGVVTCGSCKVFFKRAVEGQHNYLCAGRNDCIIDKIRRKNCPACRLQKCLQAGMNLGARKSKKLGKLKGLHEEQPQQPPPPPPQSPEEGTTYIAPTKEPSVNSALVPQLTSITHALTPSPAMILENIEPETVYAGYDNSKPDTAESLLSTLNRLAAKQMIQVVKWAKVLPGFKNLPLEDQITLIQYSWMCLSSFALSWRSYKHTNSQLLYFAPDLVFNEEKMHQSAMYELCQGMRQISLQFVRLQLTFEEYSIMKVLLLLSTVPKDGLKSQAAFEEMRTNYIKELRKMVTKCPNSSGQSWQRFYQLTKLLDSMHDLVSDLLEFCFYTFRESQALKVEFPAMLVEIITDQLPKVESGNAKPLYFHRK
TEST_METHOD_NOTES: Binding inhibition test for aldosterone receptor ([3H]aldosterone, rat renal soluble fraction)
EXPERIMENTAL_PARAMETERS: [3H]aldosterone 2 nM, rat renal soluble fraction, in the presence of 2 μM RU-486, 4° C. about 18 hours; read-out: MR IC50
RECORDED_METRIC: pIC50
Just so you know, pIC50 here is -log10 of the concentration in molar units; reply with that number alone.

Please look up its pIC50: `COc1cc(NC(=O)c2ccc(-c3ccccc3OC(F)(F)F)c(CNc3nnn[nH]3)c2)ccc1S(N)(=O)=O`
6.57

Field request: pIC50 | item: `COc1cc(NC(=O)c2ccc(-c3ccccc3C(F)(F)F)c(C)c2)ccc1S(N)(=O)=O`
6.46

Name the reported pIC50 value associated with the compound `CS(=O)(=O)c1ccc(NC(=O)c2ccc(-c3ccccc3OC(F)(F)F)c(CNc3ncccn3)c2)cc1`
5.66

Would you mind telling me what pIC50 value was observed for `CCOC(=O)c1ccccc1-c1ccc(C(=O)Nc2ccc(S(N)(=O)=O)c(OC)c2)cc1` ?
6.26

Look at this compound and give its reported pIC50. `COc1cc(NC(=O)c2ccc(-c3ccccc3C(F)(F)F)c(CNCC3CC3)c2)ccc1S(N)(=O)=O`
6.39
